Ratio values by entry
# target.entity: ATP-dependent translocase ABCB1 (Homo sapiens, UniProt P08183)
# Sequence (P08183 whole entry): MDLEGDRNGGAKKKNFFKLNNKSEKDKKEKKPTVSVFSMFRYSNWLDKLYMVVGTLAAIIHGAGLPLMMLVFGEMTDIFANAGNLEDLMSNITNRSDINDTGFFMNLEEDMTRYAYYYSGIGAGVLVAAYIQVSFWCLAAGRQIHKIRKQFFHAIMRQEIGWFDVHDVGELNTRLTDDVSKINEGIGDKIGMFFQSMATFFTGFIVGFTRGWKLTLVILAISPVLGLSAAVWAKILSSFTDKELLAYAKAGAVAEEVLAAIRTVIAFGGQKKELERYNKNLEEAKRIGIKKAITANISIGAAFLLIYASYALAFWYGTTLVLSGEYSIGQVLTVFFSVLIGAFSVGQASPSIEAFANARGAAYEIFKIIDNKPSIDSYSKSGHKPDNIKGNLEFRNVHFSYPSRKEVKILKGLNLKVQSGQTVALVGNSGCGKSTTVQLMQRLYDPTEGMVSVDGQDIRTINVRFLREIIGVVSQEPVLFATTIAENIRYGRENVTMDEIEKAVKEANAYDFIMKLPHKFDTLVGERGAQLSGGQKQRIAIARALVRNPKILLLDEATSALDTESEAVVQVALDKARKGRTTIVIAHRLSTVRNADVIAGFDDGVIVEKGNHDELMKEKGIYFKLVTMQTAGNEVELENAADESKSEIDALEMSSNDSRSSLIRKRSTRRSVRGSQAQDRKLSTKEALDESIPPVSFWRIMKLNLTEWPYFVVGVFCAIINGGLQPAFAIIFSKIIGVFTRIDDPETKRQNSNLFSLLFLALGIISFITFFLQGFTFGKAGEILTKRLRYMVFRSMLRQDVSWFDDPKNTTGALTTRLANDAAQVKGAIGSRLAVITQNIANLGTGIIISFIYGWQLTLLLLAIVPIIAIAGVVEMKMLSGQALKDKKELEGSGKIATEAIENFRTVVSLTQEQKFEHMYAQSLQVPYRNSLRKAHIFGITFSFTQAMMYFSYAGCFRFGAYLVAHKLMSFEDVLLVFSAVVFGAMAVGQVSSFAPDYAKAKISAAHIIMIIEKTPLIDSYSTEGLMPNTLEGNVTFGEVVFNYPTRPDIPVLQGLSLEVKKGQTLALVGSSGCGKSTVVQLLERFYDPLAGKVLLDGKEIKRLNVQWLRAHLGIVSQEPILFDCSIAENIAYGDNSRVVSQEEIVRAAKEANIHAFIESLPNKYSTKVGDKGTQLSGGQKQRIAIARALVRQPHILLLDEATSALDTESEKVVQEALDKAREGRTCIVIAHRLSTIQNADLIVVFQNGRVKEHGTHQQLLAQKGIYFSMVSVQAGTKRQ
# test.details: Modulation of human ABCB1 expressed in mouse L5178Y cells assessed as fluorescence activity ratio at 20 uM pretreated for 10 mins followed by rhodamine-123 addition measured after 20 mins by flow cytometry (reference value: 0.87)
# Type: cell-based
measurement.kind: Ratio

smiles.text | measurement.kind | observed.measurement
C/C1=C/[C@H]2[C@@H](OC(=O)c3ccc(C(F)(F)F)cc3)[C@@H](C)C[C@]2(O)C(=O)/C(C)=C/[C@@H]2[C@H](CC1)C2(C)C | Ratio | 9.9
CC(=O)O[C@]12C[C@H](C)[C@H](OC(=O)Oc3ccccc3)[C@@H]1/C=C(/C)CC[C@H]1[C@@H](/C=C(\C)C2=O)C1(C)C | Ratio | 19.5
CC(=O)O[C@]12C[C@H](C)[C@H](OC(=O)/C=C/c3ccccc3)[C@@H]1/C=C(/C)CC[C@H]1[C@@H](/C=C(\C)C2=O)C1(C)C | Ratio | 41.5
CC(=O)O[C@]12C[C@H](C)[C@H](OC(=O)c3cccc(C)c3)[C@@H]1/C=C(/C)CC[C@H]1[C@@H](/C=C(\C)C2=O)C1(C)C | Ratio | 18
CC(=O)O[C@]12C[C@H](C)[C@H](OC(=O)c3ccc(-c4ccccc4)cc3)[C@@H]1/C=C(/C)CC[C@H]1[C@@H](/C=C(\C)C2=O)C1(C)C | Ratio | 37.2
CC(=O)O[C@]12C[C@H](C)[C@H](OC(=O)c3ccc4ccccc4c3)[C@@H]1/C=C(/C)CC[C@H]1[C@@H](/C=C(\C)C2=O)C1(C)C | Ratio | 31.9
CCOC(=O)O[C@H]1[C@@H](C)C[C@]2(OC(C)=O)C(=O)/C(C)=C/[C@@H]3[C@H](CC/C(C)=C\[C@@H]12)C3(C)C | Ratio | 18.7
COc1ccccc1C(=O)O[C@H]1[C@@H](C)C[C@]2(OC(C)=O)C(=O)/C(C)=C/[C@@H]3[C@H](CC/C(C)=C\[C@@H]12)C3(C)C | Ratio | 39.6
CC(=O)O[C@]12C[C@H](C)[C@H](OC(=O)C34CC5CC(CC(C5)C3)C4)[C@@H]1/C=C(/C)CC[C@H]1[C@@H](/C=C(\C)C2=O)C1(C)C | Ratio | 29
C/C1=C/[C@H]2[C@@H](OC(=O)c3ccc4ccccc4c3)[C@@H](C)C[C@]2(O)C(=O)/C(C)=C/[C@@H]2[C@H](CC1)C2(C)C | Ratio | 16.7
COc1cccc(C(=O)O[C@H]2[C@@H](C)C[C@]3(O)C(=O)/C(C)=C/[C@@H]4[C@H](CC/C(C)=C\[C@@H]23)C4(C)C)c1 | Ratio | 32.8
